Catalogue of pIC50 readings, one per entry.
# system_name: human BRD4 bromodomain II (Homo sapiens, UniProt O60885)
# Construct: human BRD4 bromodomain II [based on Genbank NM_058243, residues 349-460]; host or cells: E. coli
# protocol: Bromodomain binding assay (AlphaScreen), BRD4 BDII
# applied_conditions: AlphaScreen assay, Table C2; read-out: BRD4 BDII IC50
pIC50: −log10 of the molar value.

Cn1ccn(-c2ccc(-c3cc(F)cc(-c4ccnc(N5CCN(C(C)(C)C)CC5)c4)c3O)cc2Cl)c1=O | 9.00 to 11.00

Ask: Item under review: `CC(C)N1CCN(c2cc(-c3cc(F)cc(-c4ccc(-n5ccn(C)c5=O)c(Cl)c4)c3O)cnc2C(F)(F)F)CC1` . Reported pIC50?
Result: 8.00 to 9.00

Ask: Record: `Cn1ccn(-c2ccc(-c3cc(F)cc(-c4ccnc(N5CCN[C@H](CN)C5)c4)c3O)cc2Cl)c1=O`
Result: 9.00 to 11.00

Ask: Repeat for the following compound: `CN[C@H]1CCN(c2cncc(-c3cc(F)cc(-c4ccc(-n5ccn(C)c5=O)c(Cl)c4)c3O)c2)C1`
Result: 9.00 to 11.00

Ask: Repeat with `C[C@@H]1CN(c2cc(-c3cccc(-c4ccc(N5CCCC5=O)c(Cl)c4)c3O)ccn2)CCN1`
Result: 8.00 to 9.00

Ask: Also `C[C@@H]1CN(c2cc(-c3cc(F)cc(-c4ccc(-n5ccn(C)c5=O)c(Cl)c4)c3O)cc3c2cnn3C)CCN1` ?
Result: 9.00 to 11.00

Ask: Item: `CC(=O)Nc1ccc(-c2cccc(-c3ccc4ncccc4c3)c2O)cc1F`
Result: 7.00 to 8.00

Ask: Follow-up entry: `CN1CCN(c2ccc(-c3cc(F)cc(-c4cnc(CCO)c(N5CCNCC5)c4)c3O)cc2Cl)C1=O`
Result: 8.00 to 9.00

Ask: Please do the same for `COCC(C)(C)N1CCN(c2cccc(-c3cc(F)cc(-c4ccc(-n5ccn(C)c5=O)c(Cl)c4)c3O)c2)CC1` as well.
Result: 8.00 to 9.00

Ask: Same read-out for `Cn1ccn(-c2ccc(-c3cc(F)cc(-c4cc(N5CC6CCC(C5)N6)c5cnn(C)c5c4)c3O)cc2Cl)c1=O` ?
Result: 9.00 to 11.00

* * *

# system_name: human BRD4 bromodomain II (Homo sapiens)
# Construct: human BRD4 bromodomain II [based on Genbank NM_058243, residues 349-460]; host or cells: E. coli
# protocol: Bromodomain binding assay (AlphaScreen), BRD4 BDII
# applied_conditions: AlphaScreen assay, Table C2; read-out: BRD4 BDII IC50
pIC50: −log10 of the molar value.
Measured pIC50, listed per entry.

CC(=O)Nc1c(F)cc(-c2cccc(-c3cc(N4CCNCC4)no3)c2O)cc1OC1CC1 [Example 135, 2,2,2-trifluoroacetate] | 8.00 to 9.00

Ask: Which pIC50 value is on record for CN1CCN(c2ccc(-c3cc(F)cc(-c4cnc(OCCO)c(N5CCNCC5)c4)c3O)cc2Cl)C1=O [Example 392] ?
Result: 8.00 to 9.00

Ask: Also Cc1cc(-c2ccc(-n3ccn(C)c3=O)c(Cl)c2)c(O)c(-c2cc(N3CCNCC3)c3cc[nH]c3c2)c1 [Example 557] , if possible.
Result: 8.00 to 9.00

Ask: // same read-out, input: COc1ccc(F)c(-c2cccc(-c3ccc(NC(C)=O)c(F)c3)c2O)c1 [Example 158]
Result: < 7.00

Ask: Entry Cn1ccn(-c2ccc(-c3cc(F)cc(-c4ccnc(N5CCCNCC5)c4)c3O)cc2Cl)c1=O [Example 623] please
Result: 9.00 to 11.00

Ask: Follow-up item: CN1CCN(c2ccc(-c3cc(F)cc(-c4cnc(N5CCCC5)c(N5CCNCC5)c4)c3O)cc2Cl)C1=O [Example 397]
Result: 8.00 to 9.00

Ask: And the next one, CC(C)N1CCN(c2cc(-c3cc(F)cc(-c4ccc(-n5ccn(C)c5=O)c(Cl)c4)c3O)ccc2C(F)F)CC1 [Example 814] ?
Result: 9.00 to 11.00

Ask: Next up: CNC1CCN(c2cncc(-c3cc(F)cc(-c4ccc(-n5ccn(C)c5=O)c(Cl)c4)c3O)c2)CC1 [Example 516]
Result: 8.00 to 9.00

Ask: Consider next the compound COc1ncc(-c2cc(F)cc(-c3ccc(-n4ccn(C)c4=O)c(Cl)c3)c2O)cc1N1CC[C@@](C)(O)C1 [Example 812] in the same way.
Result: 9.00 to 11.00

Ask: Field entry: CC(=O)Nc1ccc(-c2cccc(-c3cccc(-c4ccc(N)nc4)c3)c2O)cc1F [Example 202]
Result: < 7.00

Ask: And for CN1CCN(c2ccc(-c3cccc(-c4cncc(N5CC6(CNC6)C5)c4)c3O)cc2F)C1=O [Example 334] ?
Result: 7.00 to 8.00

Ask: How about this compound: CC(=O)Nc1c(F)cc(-c2cccc(-c3cccc(N4CCNCC4)c3)c2O)cc1OC1CC1 [Example 175]
Result: 7.00 to 8.00

The reported measurements were obtained from patent US20250179059A1.
